System: SF-268 CNS
Assay: NCI tumour cell line growth inhibition, 48 h; in the data active = GI50 below about 0.43 µM; inactive = the rest
One label from this list, please: active, inactive

What call does the record list for O=C(CCCCCCSc1nc(-c2ccccc2)cc(-c2ccc(Cl)cc2)n1)NO ?
inactive

What call does the record list for N#Cc1cn(C2OC(CO)C(O)C2O)c2ncnc(N)c12 (centres undefined) ?
active

What call does the record list for COc1cc2c3c(n(C)c(=O)c2cc1OC)-c1cc2c(cc1/C3=C\CCCCCN)OCO2 ?
inactive

What call does the record list for COc1cc(-c2nn(-c3ccc(NC(=O)c4ccc(Cl)c(Cl)c4)cc3)cc2-c2ccncc2)ccc1Cl ?
inactive

What call does the record list for C=C1C(=O)O[C@H]2[C@H]1CC/C(Cn1cc(CNC(=O)Cc3cn(C(=O)c4ccc(Cl)cc4)c4ccc(OC)cc34)nn1)=C\CC[C@@]1(C)O[C@@H]21 ?
inactive

What call does the record list for ClCc1cccc(Cn2cnc3c(Cl)ncnc32)c1 ?
inactive

What call does the record list for N=C1C(c2nc(-c3ccc(Br)cc3)cs2)=C(O)CN1Cc1cccnc1 ?
inactive

What call does the record list for COc1cc(C2C=C(c3cccc(NC(C)=O)c3)Nc3ncnn32)cc(OC)c1OC (centres undefined) ?
inactive

What call does the record list for CC(=O)Nc1ccc2c(c1)c(C1=C(c3cn(C)c4ccccc34)C(=O)NC1=O)cn2C ?
inactive
